# Tested on: MS2 coat protein
# experiment: apparent KD of MS2 coat protein, switch OFF state (with FMN for OFF switches, without FMN for ON switches); designed switch direction (-1 OFF switch, 1 ON switch): 1; higher = weaker reporter binding
# experimental.conditions: FMN input: 0 or 200 uM; Eterna round: R93 (includes R88 designs)
Kindly supply the reported apparent KD of MS2 coat protein values for the records listed here.
# number only, unit nM dropped from output

Let me know recorded apparent KD of MS2 coat protein for GAAAAACAUGAGGAUCACCCAUGUAGAAAUAUGGGAGGAUAUACUAUGACGAAAGUCAAAGUAGAAGGUCUAAAAG [JL S1 M-MoE mod 6 In the Read] , thanks.
125

Let me know recorded apparent KD of MS2 coat protein for AAAAUAAAAUAAAAGGAUAUAAAAAUAUAUACAUGAGGAUCACCCAUGUAUAUAAAAAUAAAAUAAAAGAAGGAAUAAAAAUAAA [SS2 507: MS2 7] , thanks.
18.9

Let me know recorded apparent KD of MS2 coat protein for AUAUGAGCUAUGGAGGAUAUCCACAAUAAAACAUGAGGAUCACCCAUGUAAGAAAGAAAAGAAUGGGAGAAGGCCAUAGCUCAAU [SS 2 M45] , thanks.
17.5

Let me know recorded apparent KD of MS2 coat protein for AUAAAACAUGAGGAUCACCCAUGUAAUAAGAACCGAGGAUAUGGAAAUAAUAAUAAUAAACCAGAAGGUGGUGAUC [Meechl MS2 SS1] , thanks.
105

Let me know recorded apparent KD of MS2 coat protein for AUUCCAAAUAGUCAGGAUAUCAAAAAUAAGACAUGAGGAUCACCCAUGUACUUAGUAAAAGUAAAUGAGAAGGGACAGGGUGUAA [JR_SS002_Sub404] , thanks.
19.4

Let me know recorded apparent KD of MS2 coat protein for GGAAAUAACAGAGAGGAUAUCCAAAGGAAAACAUGAGGAUCACCCAUGUAAAAGGAAGGAAAUUGGGAGAAGGCUCAAAAUAAAU [salish99-ss2-015] , thanks.
29.1

Let me know recorded apparent KD of MS2 coat protein for AACAAUCUAUCUGAGGAUAUAUGUCAAAAGACAUGAGGAUCACCCAUGUAAAAACAUGAAAAAUCAUAGAAGGCAGAUAGAUUGA [SS2: 1135] , thanks.
88.3

Let me know recorded apparent KD of MS2 coat protein for GAGGACGUAGGAUAGGAUAUAUGAAUAAUUACAUGAGGAUCACCCAUGUCCAUUUAUAUGGGAACAUAGAAGGGUUGUGGUUAUC [SameState2 Malc#35] , thanks.
491

Let me know recorded apparent KD of MS2 coat protein for GAAAAACAUGAGGAUCACCCAUGUAGAAAUAUGGGAGGAUAUACAAAGACGAAAGUCAAAGUAGAAGGCCCAUAAG [Starry Same State 1.6 (mat747 round 1 mod)] , thanks.
16.2

Let me know recorded apparent KD of MS2 coat protein for AGACAUAAAAGAGAGGAUAUCCAAAAGAAAACAUGAGGAUCACCCAUGUAAAAGAAAAUAAAAUGGGAGAAGGCUCACAUACAGA [Topaz 35] , thanks.
50.4

Let me know recorded apparent KD of MS2 coat protein for AAAAAACAUGAGGAUCACCCAUGUGAGAACAUGGGAGGAUAUACGAGGACGAGAGUCAGAGUAGAAGGCCUAAAAA [Garnet 66] , thanks.
51.7

Let me know recorded apparent KD of MS2 coat protein for UACACGCGGGCGCAGGAUAUGUCGCUGGUGACAUGAGGAUCACCCAUGUAUACCAUUGCGGUUGAGCAGAAGGGUGAGACGCGUG [Matimare] , thanks.
57.5

----------
# System: MS2 coat protein
# experiment: apparent KD of MS2 coat protein; designed switch direction (-1 OFF switch, 1 ON switch): -1; higher = weaker reporter binding
# experimental.conditions: Eterna round: R95; input ligand: FMN 200 uM
Kindly supply the reported apparent KD of MS2 coat protein values for the records listed here.
# number only, unit nM dropped from output

Enter recorded apparent KD of MS2 coat protein with MS2 coat protein for GUCACUAGAGGAUAUACAAUGGUAUAUGAUCCUAGUGACAAACAUGAGGAUCACCCAUGUAGAAGGCUAGUAAA [Exclusion 2 - 2] (puzzle: Exclusion 2) here.
24.5

Enter recorded apparent KD of MS2 coat protein with MS2 coat protein for UAUUACUCAGGAUAUAUGAUGUGAAACAUGAGGAUCACCCAUGUAAUAUUAUGGAUGUAAAUAGAAGGGAGAUUUU [Mat - Exclusion 5 - JL mod - D18] (puzzle: Exclusion 5) here.
51.8

Enter recorded apparent KD of MS2 coat protein with MS2 coat protein for GUUAAGGUAGGAUAUACGAUAAUAGAGGGUAGAUAUAUAACACAUGAGGAUCACCCAUGUAGAAGGACCAAUUG [Mat - Exclusion 2 - Mod of my Tesla design - D58] (puzzle: Exclusion 2) here.
91.3

----------
# Tested on: MS2 coat protein
# experiment: apparent KD of MS2 coat protein; designed switch direction (-1 OFF switch, 1 ON switch): 1; higher = weaker reporter binding
# experimental.conditions: Eterna round: R95; input ligand: FMN 200 uM
Decision: apparent KD of MS2 coat protein >= 20 nM yields YES, all other cases yield NO.

Hi team, for AACAAUCUAUUUGAGGAUAUCAUGAAAUAAACAUGAGGAUCACCCAUGUGCAGGAAAACUGCAUAUGAGAAGGCAGAUAGAUUGA [salish99_ss2_r3_025] (puzzle: Same State 2) , is the recorded apparent KD of MS2 coat protein at or above 20 nM?
YES

Hi team, for UAAGAACAUGAGGAUCACCCAUGUGGAAAGAACACAGGAUAUCAUGGAAGAACGAAACCAUGAGAAGGGUGACACG [Raatis] (puzzle: Same State 1) , is the recorded apparent KD of MS2 coat protein at or above 20 nM?
YES

Hi team, for AUUAAACAUGAGGAUCACCCAUGUCAACAAAGUCGAGGAUAUGGGCAAAUUAUAUAAUAACCAGAAGGCGAAUAAU [salish99_ss1_r3_083] (puzzle: Same State 1) , is the recorded apparent KD of MS2 coat protein at or above 20 nM?
NO

Hi team, for CUACGAGCGCCACAGGAUAUACUGAGACUCACAUGAGGAUCACCCAUGUCCAAUUCUCCCAAAUAGUAGAAGGGUGACGCGCUCG [Maenve] (puzzle: Same State 2) , is the recorded apparent KD of MS2 coat protein at or above 20 nM?
YES

Hi team, for AGAGUGUAUCCACAGGAUAUGCGAGCUGACACAUGAGGAUCACCCAUGUAGUCCUAAAGGGCUGAGCAGAAGGGUGGUAAAGCUC [Raesvelave] (puzzle: Same State 2) , is the recorded apparent KD of MS2 coat protein at or above 20 nM?
NO

----------
# Tested on: MS2 coat protein
# experiment: apparent KD of MS2 coat protein; higher = weaker reporter binding
# experimental.conditions: Eterna round: R107; input ligand: tryptophan 2.4 mM
Decision: apparent KD of MS2 coat protein >= 80 nM yields label 1, all other cases yield label 0.

Hi team, for ACAUGAGGAUCACCCAUGUCUGCCACUGAUACCAGCGGAAGCCAACGCCCUUGGCAGCAGAACAUGAGGAUCACCCAUGUAGGCA [Same State Theophylline A GF26] , is the recorded apparent KD of MS2 coat protein at or above 80 nM?
label 1

Hi team, for CGACUACAGCGUGAUACCAGUGACAGAUACCAGUCUAGACAUGAGGAUCACCCAUGUACGCGCCCUUGGCAGCACACUAGAUCGA [#29 Same State - Theophylline B] , is the recorded apparent KD of MS2 coat protein at or above 80 nM?
label 1

Hi team, for UCCUCAUGGCAUGAUACCAGACCUAACAUGAGGAUCACCCAUGUAUCAGGCAAUUGUUACGUCCCUUGGCAGCAUGUAUGCCGAC [Theo B SS t4] , is the recorded apparent KD of MS2 coat protein at or above 80 nM?
label 0

Hi team, for UGGGUAGCAUAGAUUGAUAGUUAAACUGAAGGAGCGAGAAUAAUCUCAGGUAGGUCGCAGACAUGAGGAUCACCCAUGUAGAUGG [Same State Arginine A GF16] , is the recorded apparent KD of MS2 coat protein at or above 80 nM?
label 0

Hi team, for ACAUGAGGAUCACCCAUGUAUUACCGGGAAGGAGCGGCCGGAAGGCCAGGUAGGUCGCUCGGCGUCGUGCUGUAAAGCACGACGA [#1 Same State - Arginine A Attempt #27 (HarryS)] , is the recorded apparent KD of MS2 coat protein at or above 80 nM?
label 0

----------
# Tested on: MS2 coat protein
# experiment: apparent KD of MS2 coat protein; designed switch direction (-1 OFF switch, 1 ON switch): 1; higher = weaker reporter binding
# experimental.conditions: input ligand: none
Kindly supply the reported apparent KD of MS2 coat protein values for the records listed here.
# number only, unit nM dropped from output

Enter recorded apparent KD of MS2 coat protein with MS2 coat protein for UGUACAUGAGGAUCACCCAUGUCUAGACAUGUUAAUAUAAUGUAGGAUAUAUAAAAUUUAAAUUAAUAGAAGGACAAUUUUUUU [JMF's solution 2] (Eterna round: R96, puzzle: Same State NG 3) here.
212

Enter recorded apparent KD of MS2 coat protein with MS2 coat protein for UGGUACAUGGGAGGAUAUGGGCAAGAGACAUGAGGAUCACCCAUGUAUUAAAAGCCGAAAGGCAUCUAGAAGGCCCAUGUACCU [JL SSNG1 3.86] (Eterna round: R96, puzzle: Same State NG 2) here.
86.7

Enter recorded apparent KD of MS2 coat protein with MS2 coat protein for AAUUAAGAUCUAGGAUAUCACGUCGUUUAGACGUGAGAAGGAGAUCAUAACAUGAGGAUCACCCAUGUAUUACAUGAAUUAAUU [SSNG1/6-B3] (Eterna round: R96, puzzle: Same State NG 1) here.
28.5
